For each record, write down the corresponding melting point.

Identify melting point associated with the compound CCCN(CCC)CCC1=CC(=O)CCC1
95 to 97 °C

Identify melting point associated with the compound CCc1cc(C#N)cc(C(=O)Nc2ccc(F)cn2)n1
184 °C

Identify melting point associated with the compound CNC(=O)CC(C#Cc1ccccc1)c1ccc(OC)c(OC2CCCC2)c1 (racemic)
127 to 131 °C

Identify melting point associated with the compound COC(=O)c1ncn2c1CN=C(c1ccccc1Cl)c1cc(Cl)ccc1-2
206 to 208 °C

Identify melting point associated with the compound O=[N+]([O-])c1cc(Cl)c(Cl)cc1N[C@H]1C=C[C@@H](CO)C1
94.5 to 96.5 °C

Identify melting point associated with the compound Cc1cccc(-c2nc(C(C)C)[nH]c2-c2ccc(F)c(-c3ccco3)c2)n1
78 to 90 °C

Identify melting point associated with the compound CCCCCc1c(C(C)=O)nc(C(C)C)c(CO)c1-c1ccc(F)cc1
69 to 70 °C

Identify melting point associated with the compound COc1ccc2c(c1)C(=O)C(=Cc1cccc([N+](=O)[O-])c1)C(C)(C)O2
103 to 105 °C

Identify melting point associated with the compound COCOc1cc(Cl)ccc1-c1cc(-c2cccc(C(=O)OC)c2)c(C#N)c(N)n1
159 to 160 °C

Identify melting point associated with the compound O=C(O)CN(C(=O)c1cccc(C(F)(F)F)c1S)C1CCCC1
144 to 146 °C

###

For each record, write down the corresponding melting point.

Identify melting point associated with the compound CCCN(c1ccccc1)c1nc(C)nc(SC)c1[N+](=O)[O-]
117 to 119 °C

Identify melting point associated with the compound O=c1c(NCCCOc2cccc(CN3CCCCC3)c2)c(NCc2cccnc2)c1=O
174 to 178 °C

Identify melting point associated with the compound COC(c1ccc(Cl)c2nc3n(c12)CCCN3c1ccc(Cl)cc1Cl)C(F)(F)F (stereo unspecified)
161 to 163 °C

Identify melting point associated with the compound c1ccc2c(-c3nnn[nH]3)cccc2c1
205 to 206 °C

Identify melting point associated with the compound Cc1ccc(N2CN(Cc3ccccc3)C3=NN=CC3=C2N)cc1
195 to 196 °C

Identify melting point associated with the compound CCC(=O)C(Cc1cc(C#N)cc(C#N)c1)C(=O)CC
67 to 69 °C

Identify melting point associated with the compound Cn1nnnc1-c1cn(C)c2cc(O)ccc2c1=O
> 320 °C

Identify melting point associated with the compound O=C(Nc1ccc2c(c1)C(=O)c1cc(NC(=O)c3ccccc3)ccc1C2=O)c1ccccc1
224 °C

Identify melting point associated with the compound O=C(O)CCCCCOc1ccc(CCc2ccncc2)cc1
180 to 182 °C

Identify melting point associated with the compound CC(C)c1c(NC(=O)OCc2ccccc2)nc(-c2ccc(F)cc2)n1CCC1CC(O)CC(=O)O1 (stereo unspecified)
86 to 90 °C

Identify melting point associated with the compound Nc1nc(=O)n(C2C=CC(CO)O2)cc1F (stereo unspecified)
206 °C

Identify melting point associated with the compound CCCc1nc(C)c2nnc3cc(OC)ccc3n12
159 to 162 °C

Identify melting point associated with the compound Cn1nc(C(F)(F)F)c(CS(=O)(=O)C2=NOC(C)(C)C2)c1OC1CCCC1
113 to 114 °C

Identify melting point associated with the compound N#Cc1ccc(OCC(O)CN2CCSCC2)cc1 (stereo unspecified)
94 to 95 °C

Identify melting point associated with the compound COc1ccc(-c2c(CO)c(C)nc3cc(OC)c(OC)cc23)cc1OC
200 to 201 °C

Identify melting point associated with the compound Cc1cccc(C(=O)CC(=O)C2CCCCC2)c1O
42 to 43 °C

Identify melting point associated with the compound CC(C)Nc1ccc(O)cc1
143 °C

Identify melting point associated with the compound CC(C)CN1C(=O)C2=C3SC(S(N)(=O)=O)=CC1CC(C2)S3(=O)=O (stereo unspecified)
239 to 241 °C

Identify melting point associated with the compound C#CC1(OC(=O)C(C)C)C(COC(=O)c2ccc(Cl)cc2)OC(n2ccc(N)nc2=O)C1OC(=O)C(C)C (stereo unspecified)
106 to 108 °C

Identify melting point associated with the compound Oc1cc(Br)c2oc(-c3ccc(O)c(C(F)(F)F)c3)nc2c1
183 to 185 °C

Identify melting point associated with the compound CCCCN(CCCC)C(=O)Nc1ccc(C)cc1C
48 to 50 °C

###

OUTCOME MEASURE: melting point

Identify melting point associated with the molecule Nc1ccnc(/C=C/c2ccccc2)c1
164 to 165 °C

Identify melting point associated with the molecule O=C(NCc1ccncc1)c1cc2ccnc(N(Cc3ccccc3)Cc3ccccc3)c2[nH]1
119 to 120 °C

Identify melting point associated with the molecule CC1(C)Nc2cccc3cccc(c23)N1
114 to 115 °C

Identify melting point associated with the molecule Cc1ccc(NC(=S)NCc2ccc3c(c2)CN(C2CCC(=O)NC2=O)C3=O)cc1C(F)(F)F (stereo not given)
238 to 240 °C

Identify melting point associated with the molecule O=C1c2ccccc2-c2c1c1ccccc1c(=O)n2CCCNS(=O)(=O)c1ccccc1
216 to 218 °C

###

For each record, write down the corresponding melting point.

Identify melting point associated with the molecule CC(O)(c1nc2ccc(S(=O)(=O)c3ccccc3)cc2[nH]1)C(F)(F)F (centres undefined)
115 to 117 °C

Identify melting point associated with the molecule CC(C)(C)c1cc(C2=NOC(CCOc3ccc([N+](=O)[O-])cc3)C2)cc(C(C)(C)C)c1O (centres undefined)
151 to 153 °C

Identify melting point associated with the molecule O=C1C=C(c2ccc(O)cc2)C(=O)N1
158 to 162 °C

Identify melting point associated with the molecule CCCCCCCCCC(=O)Oc1ccc(/C=C2/C(=O)Nc3cc(OC)c(OC)cc32)cc1
138 to 140 °C

Identify melting point associated with the molecule O=C(Nc1ccc2[nH]cc(C3CCNCC3)c2c1)c1ccc(F)cc1
229 to 230 °C

Identify melting point associated with the molecule CCC1(C)CC2(NC(=O)N(Cc3ccc(CN4C(=O)NC5(CC(C)(CC)NC(C)(CC)C5C)C4=O)cc3)C2=O)C(C)C(C)(CC)N1 (centres undefined)
272 to 274 °C

Identify melting point associated with the molecule COc1cccc(NC(=O)NCc2ccc3c(c2)C(=O)N(C2CCC(=O)NC2=O)C3=O)c1 (centres undefined)
323 to 325 °C

Identify melting point associated with the molecule COc1ccccc1C1(c2ccc(N(C)C)cc2)OC(=O)c2cc(N(C)C)ccc21 (centres undefined)
215 to 216 °C

Identify melting point associated with the molecule Nc1ccc(C=CC(=O)N2CCc3c([nH]c4ccccc34)C2c2ccc3c(c2)OCO3)cc1 (centres undefined)
262 to 265 °C

Identify melting point associated with the molecule N#Cc1ccc(C(O)C23CCCN2C(=O)N(c2cc(Cl)cc(Cl)c2)C3=O)cc1 (centres undefined)
184 °C

Identify melting point associated with the molecule COc1ccc(C(=O)Nc2c(Cl)cncc2Cl)c2c1[nH]c1ccccc12
> 250 °C

Identify melting point associated with the molecule CCOC(=O)C(=O)Nc1cc(O)ccc1O
> 300 °C

Identify melting point associated with the molecule COc1cc(C=O)cc(OC)c1OC1OC(COC(C)=O)C(OC(C)=O)C(OC(C)=O)C1NC(C)=O (centres undefined)
222 to 225 °C

Identify melting point associated with the molecule COc1ccc2c(c1)c(C)c(CC(C)C(=O)O)n2Cc1ccc(Cl)cc1 (centres undefined)
128 °C

Identify melting point associated with the molecule O=C1N(C(c2ccccc2)c2ccccc2)c2ccccc2C1(O)c1cc2c(cc1O)OCCCO2 (centres undefined)
115 to 118 °C

Identify melting point associated with the molecule CS(=O)(=O)Cc1ccc(C(=NN)c2ccc(Cl)cc2)cc1
52 to 54 °C

Identify melting point associated with the molecule O=C(CCl)N1CC(c2ccccc2)c2ccccc21 (centres undefined)
76 to 78 °C

Identify melting point associated with the molecule COCO[C@H]1C[C@H]2OC(C)(C)OC[C@]23C2C(CC[C@]3(O)C1)[C@@]1(OCOC)CC[C@H](CO)[C@@]1(C)C[C@H]2OCOC (some centres undefined)
154 to 158 °C

Identify melting point associated with the molecule CN(C=O)CC1(N(C)C)CCCCC1
59 to 60 °C

###

OUTCOME MEASURE: melting point

Identify melting point associated with the compound CCc1c(C)nc(-c2ccccc2)nc1NCC(=O)N(C)c1ccc(Cl)cc1
142 to 143 °C

Identify melting point associated with the compound CC1=C(CC2=NCCN2)CCc2ccccc21
223 to 224 °C

Identify melting point associated with the compound COc1ccc(S(=O)(=O)C2(C(=O)NO)CCN(Cc3ccccc3)CC2)cc1
90 to 95 °C

Identify melting point associated with the compound CS(=O)(=O)Cc1c(C(=O)NN2CCCCC2)nn(-c2ccc(Cl)cc2Cl)c1-c1ccc(Cl)cc1
171 °C

Identify melting point associated with the compound CCC(O)(c1cc(OC)cc(OCc2ccc3ccccc3c2)c1)c1nccs1 (centres undefined)
105 °C

Identify melting point associated with the compound O=C(O)c1cn(-c2nnc(C(F)(F)F)s2)c2cc(F)c(F)cc2c1=O
272 to 276 °C

Identify melting point associated with the compound CCNC(=O)N1CCn2nc(-c3ccc(F)cc3)c(-c3ccncc3)c2N1
235 to 240 °C

Identify melting point associated with the compound CCCCCCCCCCCCC(Oc1ccc(NS(=O)(=O)CCCC)cc1)C(=O)Nc1c(C)cc(C)c(-c2n[nH]c3cc(C(C)(C)C)nn23)c1C (centres undefined)
117 to 120 °C

Identify melting point associated with the compound CN1CCN(C2=Cc3cc(Cl)ccc3Oc3ccccc32)CC1
119 to 121 °C

Data provenance is a melting point compilation (Tetko et al.; mined from patent text by program, amines drawn as free bases though some values may be those of a salt).
